biological target: Rtt103p CID (Saccharomyces cerevisiae, UniProt Q05543); construct: Rtt103p CID (3‐131–6xHIS) was expressed and purified as previously described; 6xHis (C); made in house; host or cells: E. coli BL21-Codon Plus (DE3)-RIPL; experiment: Equilibrium binding by fluorescence anisotropy (FA), wild-type Rtt103p CID; set-up: species or system yeast
Sequence (Q05543 3-131): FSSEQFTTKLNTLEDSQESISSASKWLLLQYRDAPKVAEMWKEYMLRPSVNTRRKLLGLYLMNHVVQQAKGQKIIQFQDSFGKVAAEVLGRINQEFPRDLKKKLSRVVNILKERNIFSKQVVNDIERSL

# COMPOUND_STRUCTURE_STRING, Kd, µM
measured = [
    ("C[C@@H](O)[C@H](NC(=O)[C@@H]1CCCN1C(=O)[C@H](CO)NC(=O)[C@H](Cc1ccc(O)cc1)NC(=O)[C@H](CO)NC(=O)[C@@H]1CCCN1C(=O)[C@H](CO)NC(=O)[C@@H](NC(=O)[C@@H]1CCCN1C(=O)[C@H](CO)NC(=O)[C@H](Cc1ccc(O)cc1)NC(=O)[C@H](CO)NC(=O)[C@@H]1CCCN1C(=O)c1ccc2c(c1)C(=O)OC21c2ccc(O)cc2Oc2cc(O)ccc21)[C@@H](C)OP(=O)(O)O)C(=O)N[C@@H](CO)C(=O)N1CCC[C@H]1C(=O)N[C@@H](CO)C(=O)O", 15),
]

----------
biological target: UniProtKB Q05543
pKd: −log10 of the molar value.
pKd reference
REPORTED_ENDPOINT: pKd

# COMPOUND_STRUCTURE_STRING, REPORTED
records = [
    ("C[C@@H](OP(=O)(O)O)[C@H](NC(=O)[C@@H]1CCCN1C(=O)[C@H](CO)NC(=O)[C@H](Cc1ccc(O)cc1)NC(=O)[C@H](CO)NC(=O)[C@@H]1CCCN1C(=O)[C@H](CO)NC(=O)[C@@H](NC(=O)[C@@H]1CCCN1C(=O)[C@H](CO)NC(=O)[C@H](Cc1ccc(O)cc1)NC(=O)[C@H](CO)NC(=O)[C@@H]1CCCN1C(=O)c1ccc2c(c1)C(=O)OC21c2ccc(O)cc2Oc2cc(O)ccc21)[C@@H](C)OP(=O)(O)O)C(=O)N[C@@H](CO)C(=O)N1CCC[C@H]1C(=O)N[C@@H](CO)C(=O)O", 5.22),
    ("C[C@@H](O)[C@H](NC(=O)[C@@H]1CCCN1C(=O)[C@H](CO)NC(=O)[C@H](Cc1ccc(O)cc1)NC(=O)[C@H](CO)NC(=O)[C@@H]1CCCN1C(=O)[C@H](CO)NC(=O)[C@@H](NC(=O)[C@@H]1CCCN1C(=O)[C@H](COP(=O)(O)O)NC(=O)[C@H](Cc1ccc(O)cc1)NC(=O)[C@H](CO)NC(=O)[C@@H]1CCCN1C(=O)c1ccc2c(c1)C(=O)OC21c2ccc(O)cc2Oc2cc(O)ccc21)[C@@H](C)O)C(=O)N[C@@H](CO)C(=O)N1CCC[C@H]1C(=O)N[C@@H](CO)C(=O)O", 5.22),
    ("C[C@@H](O)[C@H](NC(=O)[C@@H]1CCCN1C(=O)[C@H](CO)NC(=O)[C@H](Cc1ccc(O)cc1)NC(=O)[C@H](CO)NC(=O)[C@@H]1CCCN1C(=O)[C@H](CO)NC(=O)[C@@H](NC(=O)[C@@H]1CCCN1C(=O)[C@H](COP(=O)(O)O)NC(=O)[C@H](Cc1ccc(O)cc1)NC(=O)[C@H](CO)NC(=O)[C@@H]1CCCN1C(=O)c1ccc2c(c1)C(=O)OC21c2ccc(O)cc2Oc2cc(O)ccc21)[C@@H](C)OP(=O)(O)O)C(=O)N[C@@H](CO)C(=O)N1CCC[C@H]1C(=O)N[C@@H](CO)C(=O)O", 4.37),
]
